biological target: T1, recombinant biotinylated CD71 extracellular domain (Sino Biologics) with an N-terminal 6His tag (human, UniProt P02786 89-760, biotinylated (sites not given)); test: screening ELISA, ratio
T1 construct: extracellular domain; also called hCD71; huCD71
T1 sequence (P02786 other isoform, or with tags, fused parts or gaps): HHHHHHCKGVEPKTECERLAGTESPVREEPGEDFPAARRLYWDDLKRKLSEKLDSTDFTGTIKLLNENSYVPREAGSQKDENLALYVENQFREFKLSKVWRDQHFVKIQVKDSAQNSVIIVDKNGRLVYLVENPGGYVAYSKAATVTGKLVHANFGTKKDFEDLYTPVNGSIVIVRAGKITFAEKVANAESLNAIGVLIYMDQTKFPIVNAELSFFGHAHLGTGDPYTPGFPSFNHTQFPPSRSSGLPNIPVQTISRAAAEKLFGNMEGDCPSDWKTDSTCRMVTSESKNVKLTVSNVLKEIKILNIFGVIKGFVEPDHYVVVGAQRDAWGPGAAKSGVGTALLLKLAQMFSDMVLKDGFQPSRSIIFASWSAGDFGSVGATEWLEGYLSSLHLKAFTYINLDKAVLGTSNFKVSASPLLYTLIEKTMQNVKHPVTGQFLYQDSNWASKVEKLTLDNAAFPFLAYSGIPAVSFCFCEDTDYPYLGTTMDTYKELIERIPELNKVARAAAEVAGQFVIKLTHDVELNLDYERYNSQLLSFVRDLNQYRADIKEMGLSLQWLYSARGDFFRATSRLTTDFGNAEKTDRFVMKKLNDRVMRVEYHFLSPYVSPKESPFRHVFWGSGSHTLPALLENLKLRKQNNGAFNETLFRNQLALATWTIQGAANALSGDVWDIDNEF
Property name: hCD71:HSA
Lab note: jot the number down without any unit.

Example entries and their recorded answers appear below.
* SEQ ID NO 122 (designed binder, FN3 domain) MLPAPKNLVVSRVTEDSARLSWTAPDAAFDSFQIPYWEQSLGGEAIVLTVPGSERSYDLTGLKPGTEYEVWIEGVKGGDLSFPLSAISTT | 78
* SEQ ID NO 171 (designed binder, FN3 domain) MLPAPKNLVVSRVTEDSARLSWTAPDAAFDSFAIRYLEWWDVGEAIVLTVPGSERSYDLTGLKPGTEYLVEIKGVKGGKFSYPLSAIFTT | 1960
* SEQ ID NO 281 (designed binder, FN3 domain) MLPAPKNLVVSRVTEDSARLSWTAPDAAFDSFYIDYDEIHDWGEAIVLTVPGSERSYDLTGLKPGTEYAVQIGGVKGGSFSWTLSAIFTT | 48
* SEQ ID NO 140 (designed binder, FN3 domain) MLPAPKNLVVSRVTEDSARLSWTAPDAAFDSFWISYEESDTEGEAIYLRVPGSERSYDLTGLKPGTEYNVTIQGVKGGFPSMPLSAIFTT | 2610
* SEQ ID NO 121 (designed binder, FN3 domain) MLPAPKNLVVSRVTEDSARLSWTAPDAAFDSFSIDYPEFPVRGEAIVLTVPGSERSYDLTGPKPGTEYNVTIQGVKGGFPSMPLSAIFTT | 83

Reported hCD71:HSA for SEQ ID NO 203 (designed binder, FN3 domain) MLPAPKNLVVSRVTEDSARLSWTAPDAALDSFRIEYYESYGHGEAIVLTVPGSERSYDLTGLKPGTEYDVGIYGVKGGYYSRPLSAIFTT : what is it?
1020

Reported hCD71:HSA for SEQ ID NO 209 (designed binder, FN3 domain) MLPAPKNLVVSRVTEDSARLSWTAPDAAFDSFTIPYIEYVWWGEAIVLTVQGSERSYDLTGLKPGTEYPVTIGGVKGGSRSHPLHAHFTT : what is it?
57

Reported hCD71:HSA for SEQ ID NO 224 (designed binder, FN3 domain) MLLAPKNLVVSRVTEDSARLSWTAPDAAFDSFRYLEQGLYGEAIVLTVPGSERSYDLTGLKPGTEYWVEIIGVKGGEYSTPLSAIFTT : what is it?
122

Reported hCD71:HSA for SEQ ID NO 86 (designed binder, FN3 domain) MLPAPKNLVVSRVTEDSARLSWTAPDAAFDSFIIWYAEWVNDGEAIVLTVPGSERSYDLTGLKPGTEYRVEITGVKGGTWSRPLSAIFTT : what is it?
1510
